Collected pIC50 values appear next to each entry.
target: H^+/K^+-ATPase (Sus scrofa, UniProt P19156); construct: used as an enzyme source of the in vitro enzyme reaction assay of proton pump; assay: Inhibitory effects on proton pump (H^+/K^+-ATPase) activity, hog gastric vesicles; settings: K^+ stimulated H^+/K^+-ATPase activity, hog gastric vesicle, Pi measured at 620 nm
Sequence (P19156 2-1034 limits assumed): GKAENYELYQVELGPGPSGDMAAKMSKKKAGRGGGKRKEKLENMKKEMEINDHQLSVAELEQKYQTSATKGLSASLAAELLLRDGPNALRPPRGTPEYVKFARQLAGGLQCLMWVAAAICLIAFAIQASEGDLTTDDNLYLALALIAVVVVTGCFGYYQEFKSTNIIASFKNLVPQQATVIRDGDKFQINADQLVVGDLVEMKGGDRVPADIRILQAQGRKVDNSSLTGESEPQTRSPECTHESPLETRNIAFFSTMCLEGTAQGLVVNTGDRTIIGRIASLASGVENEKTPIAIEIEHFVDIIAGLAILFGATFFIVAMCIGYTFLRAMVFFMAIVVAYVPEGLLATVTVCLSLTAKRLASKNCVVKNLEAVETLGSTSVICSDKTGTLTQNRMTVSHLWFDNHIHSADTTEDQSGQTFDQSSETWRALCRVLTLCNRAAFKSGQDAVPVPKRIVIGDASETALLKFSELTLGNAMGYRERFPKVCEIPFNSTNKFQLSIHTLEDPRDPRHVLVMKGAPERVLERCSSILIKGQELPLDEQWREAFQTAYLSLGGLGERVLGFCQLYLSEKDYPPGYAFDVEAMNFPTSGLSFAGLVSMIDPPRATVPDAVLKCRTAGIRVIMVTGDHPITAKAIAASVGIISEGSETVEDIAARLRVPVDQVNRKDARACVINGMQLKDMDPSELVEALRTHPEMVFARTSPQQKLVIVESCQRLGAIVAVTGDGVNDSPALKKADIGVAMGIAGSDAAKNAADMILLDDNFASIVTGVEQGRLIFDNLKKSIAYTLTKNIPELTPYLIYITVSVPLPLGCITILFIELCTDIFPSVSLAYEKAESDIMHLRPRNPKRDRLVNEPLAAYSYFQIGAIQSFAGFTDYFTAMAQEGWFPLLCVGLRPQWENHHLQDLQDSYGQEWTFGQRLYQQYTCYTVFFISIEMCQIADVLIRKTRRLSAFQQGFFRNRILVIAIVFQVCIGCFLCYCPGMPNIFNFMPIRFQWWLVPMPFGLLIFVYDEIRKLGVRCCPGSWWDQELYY
Sequence (P18434 whole entry partner): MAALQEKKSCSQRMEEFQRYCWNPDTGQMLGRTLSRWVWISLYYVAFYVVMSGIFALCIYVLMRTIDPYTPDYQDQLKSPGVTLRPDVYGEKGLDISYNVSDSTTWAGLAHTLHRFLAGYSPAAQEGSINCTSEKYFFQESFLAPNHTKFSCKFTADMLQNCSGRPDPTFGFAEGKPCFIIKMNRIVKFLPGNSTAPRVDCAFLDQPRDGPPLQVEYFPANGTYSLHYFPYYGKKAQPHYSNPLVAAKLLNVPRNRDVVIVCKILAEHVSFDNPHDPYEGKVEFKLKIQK
pIC50: −log10 of the molar value. Structures can show the parent of a compound that is named as a salt.

| compound | pIC50 |
| --- | --- |
| Cc1c(C)n(Cc2cccc(Cl)c2)c2c(OCc3ccc(Br)cc3)ccnc12 [Example 226, hydrochloride] | 6.35 |
| Cc1cccc(Cn2c(C)c(C)c3nccc(OCc4ccc(Br)cc4)c32)c1 [Example 223, hydrochloride] | 5.92 |
| CCn1c(C)c(C)c2nccc(OCc3ccc(Cl)cc3Cl)c21 [Example 137, hydrochloride] | 7.22 |
| Cc1c(C)n(CC2OCCO2)c2c(OCc3ccc(F)cc3)ccnc12 [Example 39, hydrochloride] | 6.66 |
| Cc1c(C)n(Cc2ccccc2)c2c(OCc3cc(F)cc(F)c3)ccnc12 [Example 195, hydrochloride] | 6.17 |
| COC(=O)c1ccc(Cn2c(C)c(C)c3nccc(OCc4ccc(F)cc4)c32)cc1 [Example 35, hydrochloride] | 5.96 |
| Cc1c(C)n(Cc2ccccc2)c2c(N3CCc4ccccc4C3)ccnc12 [Example 6, hydrochloride] | 6.70 |
| CCCn1c(C)c(C)c2nccc(OCc3cccc(C)c3)c21 [Example 153, hydrochloride] | 5.99 |
| COCCn1c(C)c(C)c2nccc(OCc3ccc(F)cc3)c21 [Example 131] | 7.22 |
| COCCn1c(C)c(C)c2nccc(OCc3ccc(F)cc3)c21 [Example 125, p-toluenesulfonate] | 7.30 |
| Cc1c(C)n(Cc2ccc(Cl)cc2)c2c(OCc3ccc(F)cc3)ccnc12 [Example 33, hydrochloride] | 6.19 |
| Cc1c(C)n(Cc2ccncc2)c2c(OCc3ccc(Cl)cc3)ccnc12 [Example 80, hydrochloride] | 5.54 |
| Cc1c(C)n(Cc2ccccc2F)c2c(N3CCc4ccccc4C3)ccnc12 [Example 9, hydrochloride] | 6.48 |
| CCCn1c(C)c(C)c2nccc(NCc3ccc(F)cc3)c21 [Example 260, hydrochloride] | 5.92 |
| Cc1cccc(Cn2c(C)c(C)c3nccc(OCc4ccc5c(c4)OCO5)c32)c1 [Example 113, hydrochloride] | 5.85 |
| C=CCn1c(C)c(C)c2nccc(OCc3ccc(Br)cc3)c21 [Example 220, hydrochloride] | 7.30 |
| Cc1c(C)n(Cc2ccccc2F)c2c(OCc3ccc4c(c3)OCO4)ccnc12 [Example 101, hydrochloride] | 6.00 |
| CC(C)=CCn1c(C)c(C)c2nccc(OCc3ccc(Cl)cc3)c21 [Example 84, hydrochloride] | 6.41 |
| Cc1c(C)n(Cc2ccc3ccccc3c2)c2c(N3CCc4ccccc4C3)ccnc12 [Example 2, hydrochloride] | 5.97 |
| Cc1c(C)n(CC2CCC2)c2c(OCc3ccc(Br)cc3)ccnc12 [Example 227, hydrochloride] | 7.05 |
| COC(=O)c1ccc(Cn2c(C)c(C)c3nccc(OCc4ccc(Cl)cc4)c32)cc1.Cl [Example 94, hydrochloride] | 6.05 |
| COCCn1c(C)c(C)c2nccc(OCc3ccc(F)cc3)c21 [Example 127, sulfate] | 7.40 |
| Cc1c(C)n(CC2CC2)c2c(OCc3cc(F)cc(F)c3)ccnc12 [Example 180, hydrochloride] | 6.08 |
| C=CCn1c(C)c(C)c2nccc(OCc3ccccc3OCC)c21 [Example 164, hydrochloride] | 5.52 |
| Cc1cccc(COc2ccnc3c(C)c(C)n(Cc4ccc(F)cc4)c23)c1 [Example 158, hydrochloride] | 6.49 |
| Cc1c(C)n(Cc2ccc(F)cc2)c2c(OCc3ccc(Cl)cc3)ccnc12 [Example 91, hydrochloride] | 6.34 |
| CCn1c(C)c(C)c2nccc(OCc3ccc4c(c3)OCO4)c21 [Example 117, hydrochloride] | 6.14 |

* * *

target: H^+/K^+-ATPase (Sus scrofa, UniProt P19156); construct: used as an enzyme source of the in vitro enzyme reaction assay of proton pump; experiment: Inhibitory effects on proton pump (H^+/K^+-ATPase) activity, hog gastric vesicles; details: K^+ stimulated H^+/K^+-ATPase activity, hog gastric vesicle, Pi measured at 620 nm
pIC50: −log10 of the molar value. Counter-ions that a name gives are not always drawn.
Entries are grouped by pIC50 into these classes: I: < 6; II: ≥ 6 and < 7; III: ≥ 7

| molecule | testedSystem | assignedClass |
| --- | --- | --- |
| Cc1cccc(COc2ccnc3c(C)c(C)n(Cc4ccc(Cl)cc4)c23)c1 [Example 147, hydrochloride] | H^+/K^+-ATPase (Sus scrofa, UniProt P19156) | I |
| COCCn1c(C)c(C)c2nccc(N3CCc4ccccc4C3)c21 [Example 5, hydrochloride] | H^+/K^+-ATPase (Sus scrofa, UniProt P19156) | II |
| Cc1c(C)n(CC(C)C)c2c(OCc3ccc(Br)cc3)ccnc12 [Example 228, hydrochloride] | H^+/K^+-ATPase (Sus scrofa, UniProt P19156) | III |
| Cc1[nH]c2c(OCc3ccc(Br)cc3)ccnc2c1C | H^+/K^+-ATPase (Sus scrofa, UniProt P19156) | I |
| C=CCn1c(C)c(C)c2nccc(OCc3ccc4c(c3)OCO4)c21 [Example 98, hydrochloride] | H^+/K^+-ATPase (Sus scrofa, UniProt P19156) | II |
| COCCn1c(C)c(C)c2nccc(OCc3ccc(F)cc3)c21 [Example 124, benzenesulfonate] | H^+/K^+-ATPase (Sus scrofa, UniProt P19156) | III |
| Cc1ccc(Cn2c(C)c(C)c3nccc(OCc4cccc(C)c4)c32)cc1 [Example 156, hydrochloride] | H^+/K^+-ATPase (Sus scrofa, UniProt P19156) | II |

* * *

molecular target: H^+/K^+-ATPase (Sus scrofa, UniProt P19156); construct: used as an enzyme source of the in vitro enzyme reaction assay of proton pump; assay: Inhibitory effects on proton pump (H^+/K^+-ATPase) activity, hog gastric vesicles; settings: K^+ stimulated H^+/K^+-ATPase activity, hog gastric vesicle, Pi measured at 620 nm
Where a name gives a salt, the structure may show the parent alone.
Label Met when IC50 is strictly below 100 nM; otherwise label Not met.

| molecule | assignedClass |
| --- | --- |
| COc1cccc(Cn2c(C)c(C)c3nccc(OCc4ccc(Cl)cc4Cl)c32)c1 [Example 141, hydrochloride] | Met |
| Cc1c(C)n(CC2CC2)c2c(OCc3ccc(Cl)cc3)ccnc12.Cl [Example 97, hydrochloride] | Met |
| CCCn1c(C)c(C)c2nccc(OCc3ccc(F)cc3)c21.Cl [Example 62, hydrochloride] | Not met |
| Cc1c(C)n(Cc2ccc(Cl)cc2)c2c(OCc3cc(F)cc(F)c3)ccnc12 [Example 183, hydrochloride] | Not met |
| COC(=O)Cn1c(C)c(C)c2nccc(OCc3ccc(Cl)cc3)c21 [Example 83, hydrochloride] | Not met |
| COCCn1c(C)c(C)c2nccc(OCc3ccc(F)cc3)c21 [Example 130] | Met |
| COCCn1c(C)c(C)c2nccc(OCc3ccc(Cl)cc3)c21.Cl [Example 86, hydrochloride] | Met |

* * *

molecular target: H^+/K^+-ATPase (Sus scrofa, UniProt P19156); construct: used as an enzyme source of the in vitro enzyme reaction assay of proton pump; experiment: Inhibitory effects on proton pump (H^+/K^+-ATPase) activity, hog gastric vesicles; conditions: K^+ stimulated H^+/K^+-ATPase activity, hog gastric vesicle, Pi measured at 620 nm
Counter-ions that a name gives are not always drawn.

| compound | testedSystem | IC50 (nM) |
| --- | --- | --- |
| Cc1c(C)n(Cc2ccccc2)c2c(NCc3ccc(F)cc3)ccnc12 [Example 261, hydrochloride] | H^+/K^+-ATPase (Sus scrofa, UniProt P19156) | 2060 |
| C=CCn1c(C)c(C)c2nccc(NCc3ccc(F)cc3)c21 [Example 254, hydrochloride] | H^+/K^+-ATPase (Sus scrofa, UniProt P19156) | 210 |
| Cc1c(C)n(CC2CC2)c2c(NCc3ccc(F)cc3)ccnc12 [Example 255, hydrochloride] | H^+/K^+-ATPase (Sus scrofa, UniProt P19156) | 550 |

* * *

target: H^+/K^+-ATPase (Sus scrofa); construct: used as an enzyme source of the in vitro enzyme reaction assay of proton pump; assay: Inhibitory effects on proton pump (H^+/K^+-ATPase) activity, hog gastric vesicles; conditions: K^+ stimulated H^+/K^+-ATPase activity, hog gastric vesicle, Pi measured at 620 nm
Where a name gives a salt, the structure may show the parent alone.
propertyMeasured: IC50 (nM)

| compound | numericValue |
| --- | --- |
| Cc1ccc(Cn2c(C)c(C)c3nccc(OCc4ccc(Cl)cc4)c32)cc1 [Example 96, hydrochloride] | 130 |
| Cc1c(C)n(CC2OCCO2)c2c(OCc3ccc(Cl)cc3)ccnc12 [Example 87, hydrochloride] | 160 |
| Cc1c(C)n(Cc2ccccc2)c2c(OCc3ccc4c(c3)OCO4)ccnc12 [Example 115, hydrochloride] | 130 |
| C=COCCn1c(C)c(C)c2nccc(OCc3ccc(F)cc3)c21 [Example 38, hydrochloride] | 1310 |
| Cc1ccc(Cn2c(C)c(C)c3nccc(OCc4ccc5c(c4)OCO5)c32)cc1 [Example 114, hydrochloride] | 70 |
